Biological target: Estrogen receptor (Homo sapiens) (UniProt P03372)
Sequence (P03372 whole entry, looked up): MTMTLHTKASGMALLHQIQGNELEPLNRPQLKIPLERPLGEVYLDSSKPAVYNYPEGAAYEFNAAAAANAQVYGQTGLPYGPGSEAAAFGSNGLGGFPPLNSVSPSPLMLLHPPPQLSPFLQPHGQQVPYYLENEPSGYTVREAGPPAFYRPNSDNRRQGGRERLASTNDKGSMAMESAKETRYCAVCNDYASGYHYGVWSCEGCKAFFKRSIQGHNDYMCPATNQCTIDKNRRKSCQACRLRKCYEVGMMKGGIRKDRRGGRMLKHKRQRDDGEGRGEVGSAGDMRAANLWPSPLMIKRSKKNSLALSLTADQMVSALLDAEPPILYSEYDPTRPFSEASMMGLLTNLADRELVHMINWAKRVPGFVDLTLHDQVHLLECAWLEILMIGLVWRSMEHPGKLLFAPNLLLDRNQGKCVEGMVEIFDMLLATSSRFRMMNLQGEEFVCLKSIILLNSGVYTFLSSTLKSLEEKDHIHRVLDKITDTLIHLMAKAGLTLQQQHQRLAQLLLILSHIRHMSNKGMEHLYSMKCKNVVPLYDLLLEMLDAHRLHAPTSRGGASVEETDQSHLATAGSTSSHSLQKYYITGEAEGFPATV
Assay: qHTS assay to identify small molecule antagonists of the estrogen receptor alpha (ER-alpha) signaling pathway (AID 743069)
Conditions: HEK293 ER-alpha-UAS-bla, beta-lactamase ratio, antagonist mode; series mostly up to 69.4 µM
Calls of active or inactive are those of the source. Calls come from the whole dose curve; as a rule, active = well fitted curve in the direction sought with a large enough effect in the signal ratio in the repeat runs (not every such curve was filed as active); inconclusive = weak or mixed curves, or effect the other way; inactive = no such curve, though single readings can be large or run the other way; the % refers to the signal ratio.
API: response.call in active, inactive

// below: answered compounds
Data request: What was the test verdict on "O=C1CCC(=O)O1" ?
Data returned: inactive

Data request: GET /call?item= "c1ccc(CNCCNCc2ccccc2)cc1" returns the recorded outcome of this test.
Data returned: inactive

Data request: Query: recorded result category for "Nc1cccc([N+](=O)[O-])c1" in this test
Data returned: inactive

Data request: Call for entry "CN1CCC(N(Cc2cccs2)c2ccccc2)CC1" :
Data returned: inactive

Data request: So what was the verdict on CCOCC(O)COc1ccc(NC(=O)CC[S+](C)C)cc1 (stereo not given) in this test?
Data returned: inactive

Data request: Given "CC1=CC=C(C(C)C)CC1" , state the outcome it received in this test.
Data returned: inactive

***
Data request: Assay outcome for "COC(C)OC" : what was it?
Data returned: inactive

Data request: What did this assay record as the result for "O=C(O)c1ccc(-n2nc(-c3ccccc3O)nc2-c2ccccc2O)cc1" ?
Data returned: active

Data request: How was "O=C1c2ccccc2S(=O)(=O)N1CCCCN1CCN(c2ncccn2)CC1" classified in this test?
Data returned: inactive

Data request: Dear colleague, could you share the recorded outcome for "CC(C)Nc1ccc(NC(C)C)c2c1C(=O)c1ccccc1C2=O" when you have a moment?
Data returned: inactive
